# RUN DESCRIPTION: growth inhibition of DIPG glioma cells, dose response, cell-based, SU-DIPG-XIII, MIPE4.0, CellTiter-Glo, qHTS (AID 1347061);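 note: cells exposed to compound for 48 hours before readout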
# CONDITION: SU-DIPG-XIII viability, CellTiter-Glo ATP luminescence
Records with an inconclusive call do not appear. The source made the active and inactive calls. No cut-off is given here; in the data, nearly all actives have AC50 up to about 37 µM.
Please answer using one outcome listed in active, inactive

Inquiry: Given O=C(O)C1CCCN(CCC=C(c2ccccc2)c2ccccc2)C1 (stereo not given) , state the outcome it received in this test.
Reply text: inactive

Inquiry: Assay outcome for Fc1ccc(Cl)cc1-c1nc(Nc2ccncc2)c2nccnc2n1 : what was it?
Reply text: inactive

Inquiry: Recorded test call requested for CCOc1cc(C(=O)Nc2ccc(Cl)c(-c3nc4ccccc4[nH]3)c2)cc(OCC)c1OCC
Reply text: active

Inquiry: For this compound, state the assay outcome: COc1cccc(-c2cc(=O)c3ccccc3o2)c1N
Reply text: inactive

---

# SYSTEM TESTED: Mitogen-activated protein kinase 7 (Homo sapiens)
# RUN DESCRIPTION: ERK5 transactivation activators in reporter cells, primary screen, cell-based, HTS (AID 1508626);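 note: luciferase driven by Gal4-ERK5 fusion binding five Gal4 sites before minimal TATA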
# CONDITION: HeLa Gal4-ERK5 transactivation, 18 h, at 5 µM, stronger effect = higher value
Calls of active or inactive are those of the source.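 How the source made its calls: active means luciferase signal above three times the same-plate solvent-only control wells; inactive means the rest.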
Measured luciferase signal accompanies every entry in the list below.

Illustrative cases are given below, each with its answer.
CN(C)CCc1c[nH]c2ccc(Cn3cncn3)cc12 : 52 AU (inactive)
COc1cc(OC)c2c(=O)c(O)c(-c3ccc(OC)c(OC)c3)oc2c1 : 64 AU (inactive)
CNCC[C@H](Oc1cccc2ccccc12)c1cccs1 : 36 AU (inactive)
CC(=O)NS(=O)(=O)c1ccc(NC(=O)c2ccccc2C(=O)O)cc1 : 100 AU (inactive)
CCN(CC)CCOc1ccc(C(=C(Cl)c2ccccc2)c2ccccc2)cc1 : 68 AU (inactive)

Inquiry: Please report the recorded luciferase signal for Cc1cc2c(s1)Nc1ccccc1N=C2N1CCN(C)CC1 .
Reply text: 136 AU (inactive)

Inquiry: For the molecule O=C(O)/C=C/C=C/c1ccc2c(c1)OCO2 , what luciferase signal is on record?
Reply text: 24 AU (inactive)

Inquiry: For N=C(N)SCCN , what is its reported luciferase signal?
Reply text: 96 AU (inactive)

Inquiry: What does the record list as luciferase signal for CC(=O)O[C@H]1CC[C@@]2(C)C(C[C@@H](OC(C)=O)[C@]3(C)C2CC[C@@]2(C)[C@H](c4ccoc4)OC(=O)[C@H]4O[C@]423)C1(C)C (stereo not given in full) ?
Reply text: 60 AU (inactive)

Inquiry: Which luciferase signal is reported for this molecule? Cc1cc(O)c(C=O)c2c1C(=O)Oc1c(COC(=O)/C=C/C(=O)O)c(O)c(C(=O)O)c(C)c1O2
Reply text: 16 AU (inactive)

Inquiry: For the molecule shown here, CC1(C)C(=O)C=C[C@@]2(C)C1CC(=O)[C@]1(C)C2CC[C@@]2(C)[C@H](c3ccoc3)OC(=O)[C@H]3O[C@]321 (stereo not given in full) , give the reported luciferase signal.
Reply text: 16 AU (inactive)

---

// values below are reported z-score
# RUN DESCRIPTION: survival rescue of mitochondrial mutant cells in low glucose, primary screen, MELAS cybrids, Rieske KO mouse fibroblasts, CellTiter-Glo (AID 1508586);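 note: z relative to plate mean and SD of compound and empty wells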
# CONDITION: MELAS cybrid survival, CellTiter-Glo 48 h, stronger effect = higher value
Answer with a number only.

NC(Cc1cc(I)c(Oc2ccc(O)c(I)c2)c(I)c1)C(=O)O (stereo not drawn) : -0.101
CO[C@H](C(=O)[C@@H](O)[C@@H](C)O)[C@@H]1Cc2cc3cc(O[C@H]4C[C@@H](O[C@H]5C[C@@H](O)[C@H](O)[C@@H](C)O5)[C@@H](O)[C@@H](C)O4)c(C)c(O)c3c(O)c2C(=O)[C@H]1O[C@H]1C[C@@H](O[C@H]2C[C@@H](O[C@H]3C[C@](C)(O)[C@H](O)[C@@H](C)O3)[C@H](O)[C@@H](C)O2)[C@H](O)[C@@H](C)O1 : 7.83
Cc1c(O)c(=O)n(-c2ccccc2)n1C : 0.46
NC(N)=NCC1COC2(CCCCC2)O1 (stereo not drawn) : 0.764
C[C@H](N[C@@H](CCc1ccccc1)C(=O)O)C(=O)N1CCC[C@H]1C(=O)O : 0.249

Inquiry: // returns reported z-score for input CC(C)NC[C@H](O)COc1ccc(CC(N)=O)cc1
Reply text: -0.419

Inquiry: GET /values?readout=z-score&item= CCC[C@@H]1C[C@@H](C(=O)N[C@@H](C2O[C@H](SC)[C@H](O)[C@@H](O)[C@H]2O)[C@H](C)Cl)N(C)C1 (stereo partly drawn)
Reply text: 0.619

Inquiry: Which z-score value is on record for O=C(Nc1ccccc1)c1cc([N+](=O)[O-])ccc1Cl ?
Reply text: -0.372

Source listed as PubChem BioAssay.
